# System Under Test: Indoleamine 2,3-dioxygenase 1 (Homo sapiens, UniProt P14902)
# Sequence (P14902 whole entry): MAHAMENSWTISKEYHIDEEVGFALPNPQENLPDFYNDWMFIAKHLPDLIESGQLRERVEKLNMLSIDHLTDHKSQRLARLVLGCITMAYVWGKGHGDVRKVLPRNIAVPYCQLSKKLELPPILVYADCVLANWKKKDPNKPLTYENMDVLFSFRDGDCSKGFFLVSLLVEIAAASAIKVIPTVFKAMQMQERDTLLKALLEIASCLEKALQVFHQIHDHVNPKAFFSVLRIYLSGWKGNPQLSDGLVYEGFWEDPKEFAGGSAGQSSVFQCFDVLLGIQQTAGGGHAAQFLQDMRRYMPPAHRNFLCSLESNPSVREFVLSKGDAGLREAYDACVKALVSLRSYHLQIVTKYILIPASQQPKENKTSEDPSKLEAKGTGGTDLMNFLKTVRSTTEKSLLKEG
# Protocol Description: Inhibition of human recombinant IDO1 using L-tryptophan as substrate after 15 mins by Dixon plot analysis
Endpoint Label: Ki (µM)
One number for each entry, in µM.

Lookup: Need Ki of N=C1C=C(N)C(=O)c2[nH]c(=O)ccc21 , thanks.
Found: 4.3

====

# System Under Test: Indoleamine 2,3-dioxygenase 1 (Homo sapiens, UniProt P14902)
# Protocol Description: Inhibition of 6His-tagged human recombinant IDO1 expressed in Escherichia coli EC 539 using L-tryptophan as substrate after 1 hr by plate reader analysis
Endpoint Label: pIC50
One number for each entry, as −log10 of the molar value.

Lookup: Fill in: pIC50 of COc1cccc2c1C(=O)C1=C(C[C@H](Cn3cc(-c4ccccc4)nn3)O[C@@H]1C)C2=O is ___
Found: 5.22

====

# Protocol Description: Competitive inhibition of rabbit small intestine IDO1 by double reciprocal plot analysis in presence of L-tryptophan
# Set-up: species or system Oryctolagus cuniculus
Endpoint Label: Ki (µM)
One number for each entry, in µM.

Lookup: Given the molecule N[C@@H](CC1=CCC=CC1)C(=O)O , what is its reported Ki?
Found: 230

====

# System Under Test: Indoleamine 2,3-dioxygenase 1 (Homo sapiens)
# Protocol Description: Inhibition of human IDO using L-tryptophan as substrate preincubated for 5 mins followed by substrate addition measured after 15 mins by spectrophotometric analysis
Endpoint Label: IC50

Lookup: Which IC50 value is on record for NOCc1ccccc1 ?
Found: < 10 µM

====

# System Under Test: Indoleamine 2,3-dioxygenase 1 (Homo sapiens)
# Protocol Description: Inhibition of N-terminal hexa-Histidine tagged human IDO1 expressed in Escherichia coli using L-tryptophan as substrate after 30 mins by HPLC analysis
Endpoint Label: IC50

Lookup: Form field: reported IC50 of N#CC(Nc1ccc(F)c(Cl)c1)c1cc(Cl)ccc1O (stereo unspecified)
Found: < 200 nM

====

# System Under Test: Indoleamine 2,3-dioxygenase 1 (Homo sapiens, UniProt P14902)
# Protocol Description: Inhibition of N-terminal His-tagged human recombinant IDO1 expressed in Escherichia coli using L-tryptophan as substrate by methylene blue/ascorbate assay
Endpoint Label: pIC50
One number for each entry, as −log10 of the molar value.

Lookup: Param item = CC1(C)CCC[C@]2(C)[C@H]3CC=C(C=O)CC(O)[C@]3(C=O)CC[C@@H]12 (stereo partly specified) ; retrieve measured pIC50.
Found: 5.11

====

# System Under Test: Indoleamine 2,3-dioxygenase 1 (Homo sapiens)
# Protocol Description: Inhibition of human recombinant IDO1 expressed in yeast IS20-2B using tryptophan as substrate by methylene blue/ascorbate assay
Endpoint Label: pKi
Numbers only, as −log10 of the molar value.

Lookup: Entry C/N=C(N)/N=C(\N)Nc1cc2ccccc2c2ccccc12 , system Indoleamine 2,3-dioxygenase 1 (Homo sapiens): what pKi was measured?
Found: 5.82

====

# System Under Test: Indoleamine 2,3-dioxygenase 1 (Homo sapiens, UniProt P14902)
# Protocol Description: Noncompetitive inhibition of human recombinant IDO1 expressed in Escherichia coli by Michaelis-Menton nonlinear regression plot analysis in presence of L-tryptophan
Endpoint Label: pKi
Give bare numbers, as −log10 of the molar value.

Lookup: Can you look up pKi on Indoleamine 2,3-dioxygenase 1 (Homo sapiens, UniProt P14902) for CC1(C)CCC2=C(O1)c1ccccc1C(=O)C2=O ?
Found: 7.00

====

# System Under Test: UniProtKB P14902
# Protocol Description: Inhibition of C-terminal 6His-tagged human IDO using L-tryptophan as substrate preincubated for 5 mins followed by substrate addition measured after 15 mins by spectrophotometric analysis
pIC50: −log10 of the molar value.
Endpoint Label: pIC50

Lookup: Give its pIC50 value. Item: O=C(Cc1ccccc1)Nc1ccc(CCOc2ccccc2-c2cnc[nH]2)cc1
Found: > 6.00

====

# System Under Test: Indoleamine 2,3-dioxygenase 1 (Homo sapiens, UniProt P14902)
# Protocol Description: Inhibition of IFN-gamma-stimulated IDO1 activity in human HeLa cells using L-tryptophan as substrate after 48 hrs by spectrophotometric analysis
# Assay type: cell-based
pIC50: −log10 of the molar value.
Endpoint Label: pIC50

Lookup: Which pIC50 is reported for this compound? CCc1ccccc1Nc1cnn[nH]1
Found: > 6.00

====

# System Under Test: Indoleamine 2,3-dioxygenase 1 (Homo sapiens)
# Protocol Description: Inhibition of N-terminal His-tagged human recombinant IDO1 expressed in Escherichia coli using L-tryptophan as substrate preincubated for 10 mins followed by substrate addition measured after 30 mins by plate reader analysis
Endpoint Label: IC50 (nM)
Answers are plain numbers, in nM.

Lookup: Recorded IC50 of COC1=CC(=O)c2oc(C)c(CO)c2C1=O , please.
Found: 240

====

# System Under Test: Indoleamine 2,3-dioxygenase 1 (Homo sapiens, UniProt P14902)
# Protocol Description: Inhibition of N-terminal His-tagged human recombinant IDO1 expressed in Escherichia coli using tryptophan as substrate by UV-visible absorption spectroscopy
Endpoint Label: IC50

Lookup: May I ask what IC50 has been recorded for Nc1oc2c(-c3ccnc(N4CCOCC4)c3)nccc2c1Nc1ccc(F)c(Cl)c1 ?
Found: < 200 nM

====

# System Under Test: Indoleamine 2,3-dioxygenase 1 (Homo sapiens, UniProt P14902)
# Protocol Description: Inhibition of IDO (unknown origin)
For each of the molecules below, state its pIC50.
One number for each entry, as −log10 of the molar value.

{"Molecule": "COc1cc(OC(=O)c2c(C)c(C)c(OC(=O)c3c(C)cc(O)c(C)c3O)c(C)c2OC)c(C)c(C)c1C(=O)O", "System Under Test": "Indoleamine 2,3-dioxygenase 1 (Homo sapiens, UniProt P14902)", "pIC50": 4.82}

Lookup: Query the reported pIC50 for Indoleamine 2,3-dioxygenase 1 (Homo sapiens, UniProt P14902); item: CN1C(=O)c2ccccc2-n2c(nc3ccccc3c2=O)C1[C@H](O)c1ccccc1 (some centres not stated)
Found: 4.68
